# TESTED_SYSTEM: KRAS G12V (Homo sapiens, UniProt P01116+P62937, G12V)
# Sequence (P01116 1-169 isoform P01116-2 G12V limits assumed): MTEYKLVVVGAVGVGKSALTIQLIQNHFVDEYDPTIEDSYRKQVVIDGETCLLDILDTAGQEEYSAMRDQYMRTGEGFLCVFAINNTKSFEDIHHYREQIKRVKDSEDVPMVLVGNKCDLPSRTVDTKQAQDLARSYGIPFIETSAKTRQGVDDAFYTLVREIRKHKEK
# Sequence (P62937 whole entry): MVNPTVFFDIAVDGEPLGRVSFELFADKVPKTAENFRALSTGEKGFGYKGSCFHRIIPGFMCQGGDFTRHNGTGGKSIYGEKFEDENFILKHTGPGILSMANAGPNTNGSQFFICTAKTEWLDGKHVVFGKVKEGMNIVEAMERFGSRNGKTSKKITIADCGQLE
# RUN_DESCRIPTION: Ras-Raf disruption / FRET / MOA assay (BRAF RBD)
# Assay type: biochemical
# CONDITION_DETAILS: Ras-Raf disruption, with Cyclophilin A; read-out: KRAS G12V FRET data IC50
pIC50: −log10 of the molar value.
PROPERTY_LABEL: pIC50

# input compound: CCn1c(-c2cccnc2[C@H](C)OC)c2c3cc(ccc31)-c1cc(O)cc(c1)C[C@H](NC(=O)[C@H](C(C)C)N(C)C(=O)[C@@]1(F)CCN(C(=O)[C@H]3CN3)C1)C(=O)N1CCC[C@H](N1)C(=O)OCC(C)(C)C2 [Example 171] ; wanted: its pIC50
7.00 to 8.00

Quick one: pIC50 of CCn1c(-c2cccnc2[C@H](C)OC)c2c3cc(ccc31)-c1cc(O)cc(c1)C[C@H](NC(=O)[C@H](C(C)C)N(C)C(=O)[C@H]1CCN(C(=O)C3CO3)C1)C(=O)N1CCC[C@H](N1)C(=O)OCC(C)(C)C2 (stereo partly shown) [Example 330] ?
7.00 to 8.00

Which pIC50 reading was recorded for the compound CCOC(=O)[C@H]1O[C@@H]1C(=O)N1CC[C@H](C(=O)N(C)[C@H](C(=O)N[C@H]2Cc3cc(O)cc(c3)-c3ccc4c(c3)c(c(-c3cccnc3[C@H](C)OC)n4CC)CC(C)(C)COC(=O)[C@@H]3CCCN(N3)C2=O)C(C)C)C1 [Example 329] ?
7.00 to 8.00

Dear colleague, I am looking for the recorded pIC50 of the following compound: CCn1c(-c2cnccc2COC)c2c3cc(ccc31)-c1cccc(c1)C[C@H](NC(=O)[C@H](C(C)C)N(C)C(=O)CCN=C=NCCc1cccs1)C(=O)N1CCC[C@H](N1)C(=O)OCC(C)(C)C2 [68 A and B]
< 5.00

###

Give pIC50 for every item shown.
# TESTED_SYSTEM: NRAS WT (Homo sapiens, UniProt P01111+P62937)
# Sequence (P01111 whole entry, one chain of several): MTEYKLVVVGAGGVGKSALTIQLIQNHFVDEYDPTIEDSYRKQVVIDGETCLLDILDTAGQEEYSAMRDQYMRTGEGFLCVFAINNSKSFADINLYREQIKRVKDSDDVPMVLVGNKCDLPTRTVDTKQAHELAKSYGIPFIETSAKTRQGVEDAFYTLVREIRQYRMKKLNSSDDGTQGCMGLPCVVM
# RUN_DESCRIPTION: Ras-Raf disruption / FRET / MOA assay (BRAF RBD)
# Assay type: biochemical
pIC50: −log10 of the molar value.

Can you look up the measured pIC50 of CCn1c(-c2cccnc2[C@H](C)OC)c2c3cc(ccc31)-c1cc(O)cc(c1)C[C@H](NC(=O)[C@H](C1CCCC1)N(C)C(=O)[C@H](C)N(C)C(=O)[C@@H]1N[C@@H]1C1CC1)C(=O)N1CCC[C@H](N1)C(=O)OCC(C)(C)C2 for me?
7.00 to 8.00

Could you share which pIC50 value was measured for CCn1c(-c2cccnc2[C@H](C)OC)c2c3cc(ccc31)-c1cc(O)cc(c1)C[C@H](NC(=O)[C@H](C1CCCC1)N(C)C(=O)CN(C)C(=O)[C@H]1N[C@H]1C1(F)CC1)C(=O)N1CCC[C@H](N1)C(=O)OCC(C)(C)C2 ?
> 8.00

Need pIC50, item CCn1c(-c2cccnc2[C@H](C)OC)c2c3cc(ccc31)-c1csc(n1)C[C@H](NC(=O)[C@H](C1CCCC1)N(C)C(=O)CN(C)C(=O)[C@@H]1N[C@@H]1C1CC1)C(=O)N1CCC[C@H](N1)C(=O)OCC(C)(C)C2
5.00 to 6.00

Need pIC50 of CCn1c(-c2cc(N3CCN(C)CC3)cnc2[C@H](C)OC)c2c3cc(ccc31)-c1cc(O)cc(c1)C[C@H](NC(=O)[C@H](C1CCCC1)N(C)C(=O)CN(C)C(=O)[C@H]1CN1)C(=O)N1CCC[C@H](N1)C(=O)OCC(C)(C)C2 , thanks.
7.00 to 8.00
